# TARGET_DESC: UniProt P56817
# Sequence (P56817 46-501): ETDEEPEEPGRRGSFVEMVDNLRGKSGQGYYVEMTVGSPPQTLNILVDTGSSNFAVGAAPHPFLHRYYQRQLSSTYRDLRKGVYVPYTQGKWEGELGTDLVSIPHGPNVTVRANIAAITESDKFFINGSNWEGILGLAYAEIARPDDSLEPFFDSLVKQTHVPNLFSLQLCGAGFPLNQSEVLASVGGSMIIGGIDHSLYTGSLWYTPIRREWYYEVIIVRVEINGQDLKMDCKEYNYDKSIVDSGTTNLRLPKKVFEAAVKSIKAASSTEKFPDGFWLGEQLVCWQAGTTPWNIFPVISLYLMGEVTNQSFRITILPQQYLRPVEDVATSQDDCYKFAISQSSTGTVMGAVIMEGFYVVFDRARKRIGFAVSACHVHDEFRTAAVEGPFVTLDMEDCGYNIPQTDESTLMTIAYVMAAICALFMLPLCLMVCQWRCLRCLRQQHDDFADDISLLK
# ASSAY_METHOD_TEXT: BACE 1 FRET inhibition assay
# Type: biochemical
# MEASUREMENT_CONDITIONS: hBACE 1 PIC50 (μM), human BACE 1
Catalogue of log10 of IC50 readings, one per entry.
Quick note: numbers are log10 of IC50, with µM as the unit.

Solved cases below.
1) [H]/N=C(/N)NN=C(/C=C/c1ccccc1)c1cn(Cc2ccc(F)cc2F)c2ccccc12
2.30
2) [H]/N=C(/N)NN=C(/C=C/c1ccc(OC)c(OC)c1)c1cn(Cc2ccccc2)c2ccccc12
1.77
3) [H]/N=C(/N)NN=C(/C=C/c1ccc(C(C)C)cc1)c1cn(Cc2cc(F)ccc2F)c2ccccc12
1.91
4) [H]/N=C(/N)NN=C(/C=C/c1cccc(OCc2ccccc2)c1)c1cn(Cc2ccccc2)c2ccccc12
1.11
5) [H]/N=C(/N)NN=C(/C=C/c1ccccc1)c1cn(Cc2ccc(C(F)(F)F)cc2)c2ccccc12
2.01

Lookup: Please report the measured log10 of IC50 for [H]/N=C(/N)NN=C(/C=C/c1cccc(F)c1)c1cn(Cc2ccccc2)c2ccccc12
Found: 1.95

Lookup: Please report the measured log10 of IC50 for [H]/N=C(/N)NN=C(/C=C/c1ccccc1)c1cn(Cc2cc(C(F)(F)F)cc(C(F)(F)F)c2)c2ccccc12
Found: 1.85

Origin of the recorded values: paper PMC11287240
